Values were extracted from paper PMC8007111.

# tested_on: hM5 mAChR (Homo sapiens, UniProt P08912)
# Construct: expressed in transfected cells; host or cells: CHO-K1 (membrane preparation)
# Sequence (P08912 whole entry): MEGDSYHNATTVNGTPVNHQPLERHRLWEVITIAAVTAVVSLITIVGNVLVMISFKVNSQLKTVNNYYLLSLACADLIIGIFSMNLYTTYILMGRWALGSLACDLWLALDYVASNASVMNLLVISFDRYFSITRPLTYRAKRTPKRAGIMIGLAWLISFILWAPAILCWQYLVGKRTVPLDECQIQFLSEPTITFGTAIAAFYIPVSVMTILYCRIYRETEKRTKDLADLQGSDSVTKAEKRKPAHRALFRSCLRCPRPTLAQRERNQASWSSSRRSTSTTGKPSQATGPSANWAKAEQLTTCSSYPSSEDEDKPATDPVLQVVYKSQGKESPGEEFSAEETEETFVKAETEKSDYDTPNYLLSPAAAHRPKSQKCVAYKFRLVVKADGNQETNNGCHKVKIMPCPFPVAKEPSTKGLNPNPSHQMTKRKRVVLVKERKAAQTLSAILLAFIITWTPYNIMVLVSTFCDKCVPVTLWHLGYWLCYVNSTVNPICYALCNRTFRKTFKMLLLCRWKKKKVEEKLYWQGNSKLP
# measurement_description: [3H]NMS inhibition radioligand binding, hM5 in CHO-K1 cell membranes
# setup_conditions: [3H]NMS, CHO-K1 cell membranes; mean ± S.E.M.
parameter: pKi hM5

The cases that follow already have their pKi hM5 on record.
Ask: Form entry - test system: hM5 mAChR (Homo sapiens, UniProt P08912); read-out: pKi hM5; compound: C[N+](C)(C)C[C@H]1COC[C@@](c2ccccc2)(C2CCCCC2)O1.[I-] [(2S,6S)-(−)-3b]
Reply: 9.18

Ask: Form entry - test system: hM5 mAChR (Homo sapiens, UniProt P08912); read-out: pKi hM5; compound: C[N+](C)(C)C[C@@H]1CO[C@](c2ccccc2)(C2CCCCC2)CO1.[I-] (relative stereo) [11b]
Reply: 7.32

Ask: Form entry - test system: hM5 mAChR (Homo sapiens, UniProt P08912); read-out: pKi hM5; compound: C[N+](C)(C)C[C@@H]1CO[C@H](c2ccc([S+]([O-])c3ccccc3)cc2)CO1.[I-] (relative stereo) [16a]
Reply: 5.21

1. C[N+](C)(C)C[C@@H]1CO[C@@H](C(c2ccccc2)c2ccccc2)CO1.[I-] (relative stereo) [12b]
2. CN(C)C[C@@H]1COC[C@](c2ccccc2)(C2CCCCC2)O1 (relative stereo) [33b]
Ask: # min-compare on pKi hM5 between 1 and 2 Answer format: the label of the selected item.
Reply: 1
(1: 5.20, 2: 8.62)

###

# tested_on: hM4 mAChR (Homo sapiens, UniProt P08173)
# Construct: expressed in transfected cells; host or cells: CHO-K1 (membrane preparation)
# Sequence (P08173 1-479): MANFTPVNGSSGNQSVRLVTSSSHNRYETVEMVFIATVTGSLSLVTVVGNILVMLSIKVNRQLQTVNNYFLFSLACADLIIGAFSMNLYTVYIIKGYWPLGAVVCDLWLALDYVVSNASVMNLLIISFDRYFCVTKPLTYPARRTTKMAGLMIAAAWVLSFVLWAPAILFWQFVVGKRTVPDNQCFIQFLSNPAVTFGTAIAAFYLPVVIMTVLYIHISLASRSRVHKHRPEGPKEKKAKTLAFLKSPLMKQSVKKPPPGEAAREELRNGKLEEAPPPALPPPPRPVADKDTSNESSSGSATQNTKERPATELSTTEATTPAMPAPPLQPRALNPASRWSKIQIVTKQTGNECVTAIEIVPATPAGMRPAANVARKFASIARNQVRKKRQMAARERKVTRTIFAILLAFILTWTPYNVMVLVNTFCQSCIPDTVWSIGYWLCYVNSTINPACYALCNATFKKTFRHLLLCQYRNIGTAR
# measurement_description: [3H]NMS inhibition radioligand binding, hM4 in CHO-K1 cell membranes
# setup_conditions: [3H]NMS, CHO-K1 cell membranes; mean ± S.E.M.; read-out: pKi hM4 (converted)
parameter: Ki (nM)

I. C[N+](C)(C)C[C@@H]1COC(c2ccccc2)C(c2ccccc2)(c2ccccc2)O1 (stereo in doubt) [19a]
II. C[N+](C)(C)C[C@@H]1COC(c2ccccc2)C(c2ccccc2)(c2ccccc2)O1 (stereo in doubt) [19b]
III. C[N+](C)(C)CC1COC(c2ccccc2)(c2ccccc2)CO1 (stereo not shown)
Ask: Sort the listed entries by Ki, smallest first. Rank the items, then write their labels in that order.
Reply: III, II, I
(III: 155 nM, II: 1170 nM, I: 3890 nM)
